# test-settings: in NMP, 326.35 K
measure: solubility (mole fraction)
Returns: the value as a bare number; no unit string appended.

State its solubility (mole fraction) for this molecule: Cc1ccccc1C(=O)O
0.559

====

# test-settings: in n-methylformamide, 311.15 K
measure: solubility (mole fraction)
Returns: the value as a bare number; no unit string appended.

State its solubility (mole fraction) for this compound: O=C(O)c1ccccc1C(=O)O
0.203

====

# test-settings: in NMP, 316.65 K
measure: solubility (mole fraction)

State its solubility (mole fraction) for this compound: Cc1ccccc1C(=O)O
0.531

====

# test-settings: in DMAc, 327.55 K
measure: solubility (mole fraction)
Returns: the value as a bare number; no unit string appended.

State its solubility (mole fraction) for this compound: Cc1ccccc1C(=O)O
0.187

====

# test-settings: in DMAc, 330.35 K
measure: solubility (mole fraction)
Returns: the value as a bare number; no unit string appended.

State its solubility (mole fraction) for this molecule: O=C(O)c1ccccc1C(=O)O
0.381

====

# test-settings: in DMSO, 339.65 K
measure: solubility (mole fraction)
Returns: the value as a bare number; no unit string appended.

State its solubility (mole fraction) for this molecule: O=C(O)c1ccccc1C(=O)O
0.378

====

# test-settings: in DMF, 330.75 K
measure: solubility (mole fraction)
Returns: the value as a bare number; no unit string appended.

State its solubility (mole fraction) for this compound: O=C(O)c1ccccc1C(=O)O
0.491

====

# test-settings: in propionic acid, 307.65 K
measure: solubility (mole fraction)
Returns: the value as a bare number; no unit string appended.

State its solubility (mole fraction) for this compound: Cc1ccccc1C(=O)O
0.212

====

# test-settings: in NMP, 296.95 K
measure: solubility (mole fraction)
Returns: the value as a bare number; no unit string appended.

State its solubility (mole fraction) for this compound: Cc1ccccc1C(=O)O
0.471

====

# test-settings: in DMSO, 324.15 K
measure: solubility (mole fraction)
Returns: the value as a bare number; no unit string appended.

State its solubility (mole fraction) for this molecule: O=C(O)c1ccccc1C(=O)O
0.364

====

# test-settings: in n-methylformamide, 327.95 K
measure: solubility (mole fraction)
Returns: the value as a bare number; no unit string appended.

State its solubility (mole fraction) for this compound: O=C(O)c1ccccc1C(=O)O
0.221

====

# test-settings: in DMSO, 332.15 K
measure: solubility (mole fraction)
Returns: the value as a bare number; no unit string appended.

State its solubility (mole fraction) for this compound: Cc1ccccc1C(=O)O
0.608

====

# test-settings: in DMAc, 332.65 K
measure: solubility (mole fraction)

State its solubility (mole fraction) for this compound: Cc1ccccc1C(=O)O
0.231

====

# test-settings: in DMAc, 308.15 K
measure: solubility (mole fraction)

State its solubility (mole fraction) for this compound: O=C(O)c1ccccc1C(=O)O
0.229

====

# test-settings: in acetonitrile, 315.45 K
measure: solubility (mole fraction)

State its solubility (mole fraction) for this compound: Cc1ccccc1C(=O)O
0.35

====

# test-settings: in DMSO, 291.55 K
measure: solubility (mole fraction)
Returns: the value as a bare number; no unit string appended.

State its solubility (mole fraction) for this molecule: O=C(O)c1ccccc1C(=O)O
0.333

====

# test-settings: in NMP, 304.65 K
measure: solubility (mole fraction)
Returns: the value as a bare number; no unit string appended.

State its solubility (mole fraction) for this compound: Cc1ccccc1C(=O)O
0.499

====

# test-settings: in acetonitrile, 302.95 K
measure: solubility (mole fraction)
Returns: the value as a bare number; no unit string appended.

State its solubility (mole fraction) for this compound: Cc1ccccc1C(=O)O
0.323

====

# test-settings: in n-methylformamide, 294.95 K
measure: solubility (mole fraction)
Returns: the value as a bare number; no unit string appended.

State its solubility (mole fraction) for this compound: Cc1ccccc1C(=O)O
0.276

====

# test-settings: in propionic acid, 320.65 K
measure: solubility (mole fraction)

State its solubility (mole fraction) for this compound: O=C(O)c1ccccc1C(=O)O
0.00579

====

# test-settings: in DMAc, 316.05 K
measure: solubility (mole fraction)
Returns: the value as a bare number; no unit string appended.

State its solubility (mole fraction) for this compound: O=C(O)c1ccccc1C(=O)O
0.286

====

# test-settings: in DMAc, 336.15 K
measure: solubility (mole fraction)

State its solubility (mole fraction) for this molecule: Cc1ccccc1C(=O)O
0.264

====

# test-settings: in NMP, 310.15 K
measure: solubility (mole fraction)

State its solubility (mole fraction) for this compound: O=C(O)c1ccccc1C(=O)O
0.116

====

# test-settings: in DMAc, 344.35 K
measure: solubility (mole fraction)
Returns: the value as a bare number; no unit string appended.

State its solubility (mole fraction) for this compound: Cc1ccccc1C(=O)O
0.384

====

# test-settings: in NMP, 314.05 K
measure: solubility (mole fraction)

State its solubility (mole fraction) for this molecule: O=C(O)c1ccccc1C(=O)O
0.128

====

# test-settings: in n-methylformamide, 330.15 K
measure: solubility (mole fraction)
Returns: the value as a bare number; no unit string appended.

State its solubility (mole fraction) for this compound: Cc1ccccc1C(=O)O
0.407

====

# test-settings: in acetonitrile, 300.25 K
measure: solubility (mole fraction)
Returns: the value as a bare number; no unit string appended.

State its solubility (mole fraction) for this compound: Cc1ccccc1C(=O)O
0.316

====

# test-settings: in DMSO, 302.95 K
measure: solubility (mole fraction)

State its solubility (mole fraction) for this molecule: Cc1ccccc1C(=O)O
0.523

====

# test-settings: in acetonitrile, 327.15 K
measure: solubility (mole fraction)
Returns: the value as a bare number; no unit string appended.

State its solubility (mole fraction) for this compound: O=C(O)c1ccccc1C(=O)O
0.0443

====

# test-settings: in n-methylformamide, 298.15 K
measure: solubility (mole fraction)
Returns: the value as a bare number; no unit string appended.

State its solubility (mole fraction) for this compound: Cc1ccccc1C(=O)O
0.286

====

# test-settings: in propionic acid, 300.35 K
measure: solubility (mole fraction)

State its solubility (mole fraction) for this compound: Cc1ccccc1C(=O)O
0.179

====

# test-settings: in propionic acid, 312.15 K
measure: solubility (mole fraction)
Returns: the value as a bare number; no unit string appended.

State its solubility (mole fraction) for this compound: O=C(O)c1ccccc1C(=O)O
0.00478

====

# test-settings: in n-methylformamide, 303.35 K
measure: solubility (mole fraction)
Returns: the value as a bare number; no unit string appended.

State its solubility (mole fraction) for this molecule: O=C(O)c1ccccc1C(=O)O
0.196

====

# test-settings: in n-methylformamide, 307.35 K
measure: solubility (mole fraction)
Returns: the value as a bare number; no unit string appended.

State its solubility (mole fraction) for this compound: O=C(O)c1ccccc1C(=O)O
0.201

====

# test-settings: in acetonitrile, 296.95 K
measure: solubility (mole fraction)
Returns: the value as a bare number; no unit string appended.

State its solubility (mole fraction) for this compound: O=C(O)c1ccccc1C(=O)O
0.0247

====

# test-settings: in DMSO, 306.35 K
measure: solubility (mole fraction)
Returns: the value as a bare number; no unit string appended.

State its solubility (mole fraction) for this compound: Cc1ccccc1C(=O)O
0.534

====

# test-settings: in propionic acid, 311.25 K
measure: solubility (mole fraction)
Returns: the value as a bare number; no unit string appended.

State its solubility (mole fraction) for this compound: Cc1ccccc1C(=O)O
0.232

====

# test-settings: in DMF, 335.35 K
measure: solubility (mole fraction)
Returns: the value as a bare number; no unit string appended.

State its solubility (mole fraction) for this compound: O=C(O)c1ccccc1C(=O)O
0.509

====

# test-settings: in propionic acid, 331.35 K
measure: solubility (mole fraction)
Returns: the value as a bare number; no unit string appended.

State its solubility (mole fraction) for this compound: O=C(O)c1ccccc1C(=O)O
0.0079

====

# test-settings: in n-methylformamide, 298.95 K
measure: solubility (mole fraction)
Returns: the value as a bare number; no unit string appended.

State its solubility (mole fraction) for this molecule: O=C(O)c1ccccc1C(=O)O
0.19

====

# test-settings: in n-methylformamide, 318.05 K
measure: solubility (mole fraction)
Returns: the value as a bare number; no unit string appended.

State its solubility (mole fraction) for this compound: Cc1ccccc1C(=O)O
0.365

====

# test-settings: in propionic acid, 330.25 K
measure: solubility (mole fraction)
Returns: the value as a bare number; no unit string appended.

State its solubility (mole fraction) for this compound: Cc1ccccc1C(=O)O
0.363

====

# test-settings: in DMAc, 323.15 K
measure: solubility (mole fraction)
Returns: the value as a bare number; no unit string appended.

State its solubility (mole fraction) for this compound: O=C(O)c1ccccc1C(=O)O
0.334

====

# test-settings: in DMAc, 325.05 K
measure: solubility (mole fraction)

State its solubility (mole fraction) for this compound: O=C(O)c1ccccc1C(=O)O
0.343

====

# test-settings: in NMP, 308.65 K
measure: solubility (mole fraction)

State its solubility (mole fraction) for this molecule: Cc1ccccc1C(=O)O
0.51
